Sourced from the supplement of paper PMC10681739

Biological target: ETS1 (UniProt P14921)
Sequence: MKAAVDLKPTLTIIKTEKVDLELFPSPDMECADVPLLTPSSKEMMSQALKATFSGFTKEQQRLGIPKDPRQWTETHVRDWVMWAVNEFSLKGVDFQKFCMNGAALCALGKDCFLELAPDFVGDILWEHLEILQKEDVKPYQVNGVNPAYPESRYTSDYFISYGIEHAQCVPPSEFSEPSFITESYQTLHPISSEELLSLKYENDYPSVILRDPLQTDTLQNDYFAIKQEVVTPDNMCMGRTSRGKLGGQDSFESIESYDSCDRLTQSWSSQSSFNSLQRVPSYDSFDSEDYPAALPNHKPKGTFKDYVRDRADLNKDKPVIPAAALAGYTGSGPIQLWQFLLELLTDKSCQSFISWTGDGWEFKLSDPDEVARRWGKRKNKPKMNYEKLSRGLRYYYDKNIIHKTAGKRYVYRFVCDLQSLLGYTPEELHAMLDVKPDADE
Assay: ETS1 binding intensity (PBM fluorescence), ETS1 alone (arbitrary fluorescence units); higher = stronger binding
Conditions: ETS1 concentration 1 nM; RUNX1 concentration 0 nM
ETS1 binding intensity values by entry

Completed entries (count: 6):
chain_sequence | target_entity | measured_quantity | meas_value
AAATCACGTACCCGGAAACCACATGCACAGAAGTGG | ETS1 (UniProt P14921) | ETS1 binding intensity | 2010
CTGAGTGAGACAGGATGTGGGCAGACCTCTAACACA | ETS1 (UniProt P14921) | ETS1 binding intensity | 5110
GCAGAAGAGGAAATGGTTTGCCTGTGCGGTGGGGGA | ETS1 (UniProt P14921) | ETS1 binding intensity | 1370
AGGTTCTCCAGAGGAGGAAGTGGTTTGCTGCAGGCT | ETS1 (UniProt P14921) | ETS1 binding intensity | 2450
AACAACAGGATGCTCTCTAGTCTAACAGTGGTAACA | ETS1 (UniProt P14921) | ETS1 binding intensity | 847
CTCTGGCAGGAAGCTCTGAGGGCTAAACCACAAAAA | ETS1 (UniProt P14921) | ETS1 binding intensity | 1110

Data request, read-out ETS1 binding intensity, for `TGGGAACTTCCTGTGGAGGAGTGCATTGTGGGACTT`
851

Data request, read-out ETS1 binding intensity, for `AGTCTAACCAACAAAGGATGTGGTAGGTAAAAGGTT`
1250

Data request, read-out ETS1 binding intensity, for `TGAAGGGACGGAAGGGACAGAACTTGCGGGAGGCAC`
497
